Entry source: ChEMBL document CHEMBL4296182

System: Escherichia coli
measurement notes: Antibacterial activity against Escherichia coli ATCC 25922 (CO-ADD:GN_001); MIC in CAMBH media using NBS plates, by Resazurin F(560/590)
Assay type: functional
condition set: Concentration 20 uM, ASSAY_TEST Inhibition of Bacterial Growth, detection method Resazurin, Fluorescence (ex560/em590), MEDIA CAMHB, plate type 384well, CORNING #3640, time 18 hr
assay endpoint: Inhibition (%)

molecule="C=CCN1CC[C@]23c4c5ccc(O)c4O[C@H]2C(=O)CC[C@@]3(O)[C@H]1C5 [NALOXONE]" target_or_test_system="Escherichia coli" reported_measurement=1.67
molecule=Nc1nc(N)c2cnnn2n1 target_or_test_system="Escherichia coli" reported_measurement=-17.28
molecule=COc1ccc(OC(=O)Nc2ccc([N+](=O)[O-])cc2OC)cc1 target_or_test_system="Escherichia coli" reported_measurement=1.72
molecule=CC(C)(C)n1cc(C(=O)c2ccccc2)cc1-c1ccccc1 target_or_test_system="Escherichia coli" reported_measurement=7.58
